target: Human CXCR3 (N-delta 4) (Homo sapiens, UniProt P49682); construct: CD8 leader (N); Flag tag; expressed in transfected cells; membrane preparation; experiment: Human CXCR3 (N-delta 4) Scintillation Proximity Assay (SPA), [125I] IP-10 binding to Ba/F3-hCXCR3 (N-delta 4) membranes; conditions: [125I] IP-10 displacement, specific Ki values (Table 2), read-out: Ki
Sequence (P49682 5-368 limits assumed): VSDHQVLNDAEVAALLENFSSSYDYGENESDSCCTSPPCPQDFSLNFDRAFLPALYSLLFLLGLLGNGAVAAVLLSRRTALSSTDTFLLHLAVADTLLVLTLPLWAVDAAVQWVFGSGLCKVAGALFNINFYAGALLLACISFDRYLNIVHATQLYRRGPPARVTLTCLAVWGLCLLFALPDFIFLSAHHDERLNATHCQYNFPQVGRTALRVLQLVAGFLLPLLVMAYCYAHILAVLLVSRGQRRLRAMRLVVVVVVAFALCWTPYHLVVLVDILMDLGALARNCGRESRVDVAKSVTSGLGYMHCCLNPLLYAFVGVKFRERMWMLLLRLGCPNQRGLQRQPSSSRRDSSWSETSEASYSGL
Experimental Readout: pKi
Please keep in mind that pKi is minus log10 of the molar concentration; only the number is needed.

Sample records with pKi:
* CC[C@H]1CN(c2c(Cl)nc(-c3nnc(N)o3)c(=O)n2C)CCN1C1CCN(Cc2ccc(Cl)nc2)CC1 | 8.72
* CCNc1nnc(-c2nc(C)c(N3CCN(C4CCN(C(=O)c5ccc(Cl)nc5N)CC4)[C@@H](CC)C3)n(C)c2=O)o1 | 8.59
* CC[C@H]1CN(c2c(Cl)nc(-c3nnc(N)o3)c(=O)n2C)CCN1C1CCN(C(=O)c2ccc(Cl)nc2N)CC1 | 8.12
* CC[C@H]1CN(c2c(Cl)nc(C(N)=O)c(=O)n2C)CCN1C1CCN(Cc2ccc(Cl)cc2F)CC1 | 8.08

The molecule listed as CC[C@H]1CN(c2c(Cl)nc(-c3nnc(N)o3)c(=O)n2C)CCN1C1CCN(Cc2ccc(Cl)cc2)CC1 shows pKi equal to 8.72

Provenance of the data: patent US7781437B2
